Known MIC of a selection of compounds
Test system: SAUR 9218
Experiment: MIC Test Method, standard agar dilution
Assay type: cell-based
Settings: agar dilution, Mueller Hinton agar, incubated overnight at 35° C.; lowest concentration that inhibits visible growth; read-out: SAUR 9218 MIC
State the answer as a number, implicitly in µg/mL.

Prompt: Look up MIC for this compound: `N#Cc1ccc(NC(=O)c2cc(CN(CCO)CCO)on2)c(C(=O)O)c1`
Response: 8

Prompt: Look up MIC for this compound: `O=C(Nc1ccc(Cl)cc1C(=O)O)c1cc(CCCC2CCCCC2)on1`
Response: 4

Prompt: Look up MIC for this compound: `N#Cc1ccc(/C=C/c2noc3ccccc23)c(C(=O)O)c1`
Response: 64

###

System: SAUR 9218
Assay: MIC Test Method, standard agar dilution
Format: cell-based
Details: agar dilution, Mueller Hinton agar, incubated overnight at 35° C.; lowest concentration that inhibits visible growth; read-out: SAUR 9218 MIC
Known MIC of a selection of compounds
State the answer as a number, implicitly in mg/L.

# count of solved cases: 3
compound: N#Cc1ccc(NC(=O)c2cc3cccc(NC(=O)c4ccno4)c3[nH]2)c(C(=O)O)c1
MIC / mg/L: 2
--
compound: O=C(Nc1ccc(I)cc1C(=O)O)c1cnc(Cl)cn1
MIC / mg/L: 128
--
compound: O=C(Nc1ccc(Cl)cc1C(=O)O)c1cc(-c2ccccc2F)on1
MIC / mg/L: 0.25

Prompt: Look up MIC for this compound: `CCC(CC)Oc1ccccc1-c1cc(C(=O)Nc2ccc(C#N)cc2C(=O)O)no1`
Response: 4

Prompt: Look up MIC for this compound: `N#Cc1ccc(NC(=O)c2cc3cccc4c3n2CC/C4=N\O)c(C(=O)O)c1`
Response: 0.25

Prompt: Look up MIC for this compound: `CCOc1ccc(CC(=O)Nc2cccc3cc(C(=O)Nc4ccc(C#N)cc4C(=O)O)[nH]c23)cc1`
Response: 0.5

Prompt: Look up MIC for this compound: `COc1cccc(-c2cc(C(=O)Nc3ccc(O)cc3C(=O)O)no2)c1`
Response: 0.25

Prompt: Look up MIC for this compound: Cl.Cn1c(C(=O)Nc2ccc(C#N)cc2C(=O)O)cc2cccc(OCC(O)CNc3ccccc3)c21 (stereo not shown)
Response: 0.125

Prompt: Look up MIC for this compound: `N#Cc1ccc(NC(=O)c2cc3ccccc3[nH]2)c(C(=O)O)c1`
Response: 2

Prompt: Look up MIC for this compound: `CC1=C(C(=O)Nc2ccc(Br)cc2C(=O)O)Cc2ccccc21`
Response: 8

###

Tested on: SAUR 9218
Experiment: MIC Test Method, standard agar dilution
Format: cell-based
Conditions: agar dilution, Mueller Hinton agar, incubated overnight at 35° C.; lowest concentration that inhibits visible growth; read-out: SAUR 9218 MIC
Known MIC of a selection of molecules
State the answer as a number, implicitly in µg/mL.

# count of solved cases: 6
molecule: N#Cc1ccc(NC(=O)c2noc3c2CCCC3)c(C(=O)O)c1
readout.units: µg/mL
MIC: 0.5

molecule: Cc1sc(C(=O)Nc2ccc(Br)cc2C(=O)O)cc1S(=O)(=O)N1CCN(c2cccc(C(F)(F)F)c2)CC1
readout.units: µg/mL
MIC: 32

molecule: Nc1ccc(CCNS(=O)(=O)c2cc(C(=O)Nc3ccc(Br)cc3C(=O)O)cs2)cc1
readout.units: µg/mL
MIC: 128

molecule: N#Cc1ccc(NC(=O)c2ccc(SC3CCCC3)nc2)c(C(=O)O)c1
readout.units: µg/mL
MIC: 0.5

molecule: CCCC(=O)Nc1ccc2cc(C(=O)Nc3ccc(C#N)cc3C(=O)O)n(C)c2c1
readout.units: µg/mL
MIC: 1

molecule: CC(=O)Nc1cccc2cc(C(=O)Nc3ccc(C#N)cc3C(=O)O)[nH]c12
readout.units: µg/mL
MIC: 2

Could you now look at the following molecule, please?
Prompt: Look up MIC for this molecule: COC1CCn2c(C(=O)Nc3ccc(C#N)cc3C(=O)O)cc3cccc1c32 (centres unmarked)
Response: 0.5

###

Tested on: SAUR 9218
Test: MIC Test Method, standard agar dilution
Assay type: cell-based
Details: agar dilution, Mueller Hinton agar, incubated overnight at 35° C.; lowest concentration that inhibits visible growth; read-out: SAUR 9218 MIC
outcome.measure: MIC (µg/mL)
State the answer as a number, implicitly in µg/mL.

# count of solved cases: 3
molecule: CCCCCSc1ccc(C(=O)Nc2ccc(C#N)cc2C(=O)O)cn1
readout.units: µg/mL
MIC: 0.125
--
molecule: CN(C)S(=O)(=O)c1ccc2onc(C(=O)Nc3ccc(C#N)cc3C(=O)O)c2c1
readout.units: µg/mL
MIC: 0.125
--
molecule: CC(=O)Nc1cccc(-c2cccc3cc(C(=O)Nc4ccc(C#N)cc4C(=O)O)n(C)c23)c1
readout.units: µg/mL
MIC: 0.5

Prompt: Look up MIC for this molecule: `CC(=O)Nc1ccccc1-c1ccc2onc(C(=O)Nc3ccc(C#N)cc3C(=O)O)c2c1`
Response: 0.5

Prompt: Look up MIC for this molecule: `CCCCCCSc1ccc(C(=O)Nc2ccc(Cl)cc2C(=O)O)cn1`
Response: 0.125

###

System: SAUR 9218
Assay: MIC Test Method, standard agar dilution
Type: cell-based
Conditions: agar dilution, Mueller Hinton agar, incubated overnight at 35° C.; lowest concentration that inhibits visible growth; read-out: SAUR 9218 MIC
MIC strictly under 8 µg/mL means y; at 8 µg/mL or over means n.

Check out these entries, answers already filled in.
compound: COCCOc1cccc2cc(C(=O)Nc3ccc(C#N)cc3C(=O)O)n(C)c12
class.assignment: y

compound: N#Cc1ccc(NC(=O)c2ncc(-c3ccccc3C(F)(F)F)o2)c(C(=O)O)c1
class.assignment: y

compound: CCN(CC)S(=O)(=O)c1ccc2onc(C(=O)Nc3ccc(Br)cc3C(=O)O)c2c1
class.assignment: y

compound: CC(C)CN1C(=O)c2ccc(C(=O)Nc3ccc(Br)cc3C(=O)O)cc2C1=O
class.assignment: y

Here is another compound to look at.
Prompt: Hello, is MIC of the following compound strictly smaller than 8 µg/mL? CN(CC(O)C(O)C(O)C(O)CO)C(=O)Nc1cccc2cc(C(=O)Nc3ccc(C#N)cc3C(=O)O)n(C)c12 (stereo not drawn)
Response: n

###

Known MIC of a selection of compounds
System: SAUR 9218
Test: MIC Test Method, standard agar dilution
Assay type: cell-based
Conditions: agar dilution, Mueller Hinton agar, incubated overnight at 35° C.; lowest concentration that inhibits visible growth; read-out: SAUR 9218 MIC
State the answer as a number, implicitly in µg/mL.

# count of solved cases: 5
compound: Cn1c(C(=O)Nc2ccc(C#N)cc2C(=O)O)cc2cccc(-c3ccc(C(C)(C)C)cc3)c21
MIC / µg/mL: 4

compound: COc1ccc(-c2cnc(C(=O)Nc3ccc(Br)cc3C(=O)O)o2)cc1
MIC / µg/mL: 2

compound: CC(=O)Nc1ccc(-c2cc3onc(C(=O)Nc4ccc(C#N)cc4C(=O)O)c3cc2NC(C)=O)c(C(F)(F)F)c1
MIC / µg/mL: 0.03

compound: N#Cc1ccc(NC(=O)c2cc3cccc(NC(=O)Cc4ccc5c(c4)OCO5)c3[nH]2)c(C(=O)O)c1
MIC / µg/mL: 0.5

compound: Cn1nc(-c2c(F)cccc2F)cc1C(=O)Nc1ccc(Br)cc1C(=O)O
MIC / µg/mL: 128

Prompt: Look up MIC for this compound: `COc1cc2c(cc1OC)CN(S(=O)(=O)c1cc(C(=O)Nc3ccc(C#N)cc3C(=O)O)sc1C)CC2`
Response: 8

Prompt: Look up MIC for this compound: `Cn1nc(C(=O)Nc2ccc(C#N)cc2C(=O)O)c2ccccc21`
Response: 32

Prompt: Look up MIC for this compound: `Cc1c(S(=O)(=O)Nc2ccc(N3CCOCC3)cc2)csc1C(=O)Nc1ccc(Br)cc1C(=O)O`
Response: 64

Prompt: Look up MIC for this compound: `COc1ccc(CCCC(=O)Nc2cccc3cc(C(=O)Nc4ccc(C#N)cc4C(=O)O)[nH]c23)cc1`
Response: 1

Prompt: Look up MIC for this compound: `O=C(O)c1cc(Br)ccc1NC(=O)c1cc(OCc2ccccc2)cc[n+]1[O-]`
Response: 32

Prompt: Look up MIC for this compound: `N#Cc1ccc(NC(=O)c2coc(-c3ccccc3)n2)c(C(=O)O)c1`
Response: 64

Prompt: Look up MIC for this compound: `Cc1c(S(=O)(=O)NC2Cc3ccccc3C2)csc1C(=O)Nc1ccc(Br)cc1C(=O)O`
Response: 16

Prompt: Look up MIC for this compound: `N#Cc1ccc(NC(=O)c2ccc(SCCCCN)nc2)c(C(=O)O)c1.O=C(O)C(F)(F)F`
Response: 2

Prompt: Look up MIC for this compound: `Cc1sc(C(=O)Nc2ccc(C#N)cc2C(=O)O)cc1S(=O)(=O)N1CCCCCCC1`
Response: 8

Prompt: Look up MIC for this compound: `CC(=O)c1ccc(N2CCN(S(=O)(=O)c3cc(C(=O)Nc4ccc(C#N)cc4C(=O)O)sc3C)CC2)cc1`
Response: 16

Prompt: Look up MIC for this compound: `N#Cc1ccc(NC(=O)c2cc(-c3ccccc3OC3CCOCC3)on2)c(C(=O)O)c1`
Response: 0.25

Prompt: Look up MIC for this compound: `COc1cc(C(=O)Nc2ccc(Br)cc2C(=O)O)nn1Cc1ccccc1`
Response: 128

Prompt: Look up MIC for this compound: `Cc1nn(C)c(Cl)c1S(=O)(=O)Nc1cccc2cc(C(=O)Nc3ccc(C#N)cc3C(=O)O)n(C)c12`
Response: 0.125

Prompt: Look up MIC for this compound: N#Cc1ccc(NC(=O)c2cc(-c3ccccc3OCC3C=CCCC3)on2)c(C(=O)O)c1 (centres unmarked)
Response: 2

Prompt: Look up MIC for this compound: `CCCCCCCC(=O)Nc1cccc2cc(C(=O)Nc3ccc(C#N)cc3C(=O)O)[nH]c12`
Response: 0.125

Prompt: Look up MIC for this compound: `N#Cc1ccc(NC(=O)c2noc3cc(OS(=O)(=O)Cc4ccccc4)ccc23)c(C(=O)O)c1`
Response: 0.25

Prompt: Look up MIC for this compound: `CS(=O)(=O)Nc1ccc(-c2cc3onc(C(=O)Nc4ccc(C#N)cc4C(=O)O)c3cc2NS(C)(=O)=O)c(C(F)(F)F)c1`
Response: 0.125
